Target System: T1, human Claudin18.2 (CLDN18.2) (human, UniProt P56856 1-261)
T1 construct: the cell line is named under assay; also called human Claudine18.2; hClaudin18.2
Measurement Description: FACS on CHOK1-18.2 cells;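 note: antibody binding to the cells detected with a fluorescently labelled secondary antibody and read out as median fluorescence intensity by flow cytometry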
Recorded measurements of FACS MFI, one per entry
Form field (numeric): enter value without unit.

Solved entries (count: 6):
Ab38 (antibody, V domains shown, mouse monoclonal (hybridoma)) VH: QIQLVQSGPELKKPGETVKISCKASGYTFTNYGMSWVKQAPGKGLKWMGWINTYSGVPTYADDFKGRFVFSLEASASTAYLQINNLKNEDAATYFCSRWSGPDPLEDHWGQGTTLTVSS VL: QIVLTQSPAIMSASPGEKVTMTCTASLSLNYIHWYRQRSGTSPKRWIYDTSKLASGVPSRFSGSGSGTSYSLTISSMEAEDAATYYCQQWSSNPWTFGGGTKLEIK    15700
Ab20 (antibody, V domains shown, mouse monoclonal (hybridoma)) VH: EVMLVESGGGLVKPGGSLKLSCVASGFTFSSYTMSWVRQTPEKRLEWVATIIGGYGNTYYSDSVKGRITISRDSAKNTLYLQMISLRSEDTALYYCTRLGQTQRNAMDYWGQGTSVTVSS VL: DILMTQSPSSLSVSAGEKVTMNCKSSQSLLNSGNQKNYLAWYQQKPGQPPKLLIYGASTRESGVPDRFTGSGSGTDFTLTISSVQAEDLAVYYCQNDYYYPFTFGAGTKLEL    7580
Ab28 (antibody, V domains shown, mouse monoclonal (hybridoma)) VH: QVQLKESGPGLVAPSQSLSITCTVSGFSLTSHGVHWVRQPPGKGLEWLGVIWAGGSINFNSALMSRLSISKDNSKNQVFLKMNSLQSDDTAMYYCARDYYYGIGLDYWGQGTTLTVS VL: DIVMTQSPSSLSVSAGEKVTMSCKSSQSLLNSGNQKNYLAWYQQKPGQPPKLLIYGASTRESGVPDRFTGSGSGTDFTLTISSVQAEDLAVYYCQNDYYYPFTFGSGTKLEIK    8880
Ab12 (antibody, V domains shown, mouse monoclonal (hybridoma)) VH: EVMLVESGGGLVKPGGSLKLSCAASGFTFSSYTMSWVRQTPEKRLEWVATIIGGYGNTYYADSVKGRFTISRDSAKNTLYLQMLSLRSEDTALYYCTRLGQTQRNAMDYWGQGTSVTVSS VL: DILMTQSPSSLSVSAGEKVTMSCKSSQSLLNSGNQRNYLAWYQQKPGQPPKLLIYGASTRESGVPDRFTGSGSGTDFTLTISSVQAEDLAVYYCQNDYYYPLTFGAGTKLELK    8820
Ab01 (antibody, V domains shown, mouse monoclonal (hybridoma)) VH: DVQLQESGPGLVKPSQSLSLTCSVTGYSITSGYYWNWIRQFPGNKLEWMGYITYDGSNNYNPSLKNRISITRDTSKNQFFLKLNSVTTEDAATYFCARDPNYYGTTLPAWFVYWGQGTLVTVSA VL: DIVVTQSHKFMSTSVGDRVSITCKASQDVGTAVAWYQQKPGQSPKLLIYWASTRHTGVPDRFTGSGSGTDFTLTISNVQSEDLTDYFCQQYSSYVTFGAGTKLELK    12300
Ab27 (antibody, V domains shown, mouse monoclonal (hybridoma)) VH: QVQLQQSGAELVRPGSSVKISCKASGYAFSNYWMNWVKQRPGQGLEWIGQIYPGNGDTNYNGKFKGKATLTADKSSTTAYIQLSSLTSEDSAVYFCTRIYYGNSFAYWGQGTLVTVS VL: DIVMTQSPSSLTVTAGERVTMSCKSSQSLLNSGNQKNYLTWYQQKPGQPPKLLIYWASTRESGVPDRFTGSGSGTDFTLTISRVQAQDLAVYYCQNDYYYPLTFGAGTKLELK    7150

Q. Data request, read-out FACS MFI, for Ab33 (antibody, V domains shown, mouse monoclonal (hybridoma)) VH: DVNLVESGGGLVKPGGSLKLSCAASGFTFSSYTMSWVRQTPEKRLEWVATITYGRIYTYYLDSVKGRFTISRDNAKNTLYLQMSSLRSEDTAMYYCTRMITGNAMDSWGLGTSVTVSS VL: DIVMTQSPSSLTVTAGEKVTMSCKSSQSLLNSGNQKNYLTWYQQKPGQPPKLLIYWASTRESGVPDRFTGSGSGTDFTLTISGVQGEDLAVYYCQNDYSYPLTFGGGTKLELK
A. 8200

Q. Further, for Ab34 (antibody, V domains shown, mouse monoclonal (hybridoma)) VH: EVLLQQSGPELVKPGASVKIPCKASGYTFSDYNMDWVKQSHGKSLEWIGHINPNNDNTIYNQKFKGKATLTVDKSSNTAYMDLRSLSSEDTAVYYCARGAYYGNSMDYWGQGTSVTVSS VL: DIVMTQSPSSLTVTAGERVTMSCKSSQSLLNGGNQRNYLTWYQQKPGQSPKLLIYWASTWESGVPDRFTGSGSGTDFTLTISSVQAEDLAVYYCQNAYFYPYTFGGGTKLEIK ?
A. 9070

Q. Further, for Ab22 (antibody, V domains shown, mouse monoclonal (hybridoma)) VH: EVMLVESGGGLVKPGGSLKLSCAASGFTFSSYTMSWVRQTPEKRLEWVATIIGGYGNTYYADSVKGRFTISRDSAKNTLYLQMISLRSEDTALYYCTRLGQTQRNAMDYWGQGTSVTVSS VL: DILMTQSPSSLSVSAGEKVTMSCKSSQSLLNSGNQKNYLAWYQQKPGQPPKLLIYGASTRESGVPDTFTGSGSGTDFTLTISSVQAEDLAVYYCQNDYYYPFTFGAGTKLEL ?
A. 9020

Q. Further, for Ab06 (antibody, V domains shown, mouse monoclonal (hybridoma)) VH: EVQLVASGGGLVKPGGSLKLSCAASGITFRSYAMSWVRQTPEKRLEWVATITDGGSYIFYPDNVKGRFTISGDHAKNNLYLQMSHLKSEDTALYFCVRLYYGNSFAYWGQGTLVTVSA VL: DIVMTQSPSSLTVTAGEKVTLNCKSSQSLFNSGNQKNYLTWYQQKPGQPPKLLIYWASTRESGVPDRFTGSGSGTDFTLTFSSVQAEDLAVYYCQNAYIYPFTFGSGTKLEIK ?
A. 46100
